molecular target: T1, M4; assay: ELISA, 1 ug/ml
T1 construct: also called PD1 mutant M4
measure: OD490
Output spec: single numeric token, no unit.

- binder: "PD1-45D6 (antibody, V domains shown, scFv-phage in the screening ELISA; whole IgG in the other assays) VH: QVQLVESGGGVVQPGRSLRLSCAASGFTFSSYAMHWVRQVPGKGLEWVAVISYDGNDKYYADSVKGRFTISRDNSKNTLYLQMNSLRAEDTAVYYCVPTTFEYWGQGSQVTVSS VL: DIVMTQTPLSLPVTPGEAASISCRSSQSLLDSDDGKTYLDWYLQKPGQSPQLLIYTLSYRASGVPDRFSGSGSGTEFNLRISRVEAEDVGIYYCMQRVEFPFTFGQGTKLDIK"
  OD490: 3.9
- binder: "PD1-52E8 (antibody, V domains shown, scFv-phage in the screening ELISA; whole IgG in the other assays) VH: QVQLVQSGGNLVQPGRSLRLSCAASGFTFDDYAMHWVRQAPGKGLEWVSGISWNSGTPGYADSVQGRFTISRDNAKNSLYLQMNSLRAEDTAVYYCARGHNYLDSSYYDYWGQGTLVTVSS VL: SYELTQPLSLSVAPGQTARITCSGDALSKEYSYWYQQKPGQAPVLVMYKDSERPSGIPERFSGSSSGTTVTLTISGVQAEDEADYYCQSVDSSDTSVVFGGGTKLTVL"
  OD490: 3.7

Which OD490 value is on record for PD1-49A2 (antibody, V domains shown, scFv-phage in the screening ELISA; whole IgG in the other assays; also called Parent 49A2) VH: QVQLVESGGGVVQPGRSLRLSCAASGFTFSSYAMHWVRQAPGKGLEWVAVISYDGSNKYYADSVKGRFTISRDNPKNTLYLQMNSLRAEDTAVYYCTTTTFDSWGRGTLVTVSS VL: DIVMTQSPLSLPVTPGEPASISCRSSQSLFDSDDGNTYLDWYLQKPGQSPQLLIYTLSHRASGVPDRFSGSGSGTDFTLKISRVEAEDVGIYYCLQRMGFPYTFGQGTKVEIK ?
3.9

# OD490 lookup, item PD1-41C9 (antibody, V domains shown, scFv-phage in the screening ELISA; whole IgG in the other assays) VH: QMQLVESGGGVVQPGRSLRLSCAASGFTFSSYAMHWVRQAPGKGLEWVAVISYDGSNKYYADSVKGRFTISRDNSKNTLYLQMNRLRSEDTAVYYCTTTTFDSWGQGTLITVSS VL: DIVMTQTPLSLPVTPGEAASISCRSSQSLLDSEDGNTYLDWYLQKPGQSPQLLIYTLSHRASGVPDRFSGSGSGTDFTLKISRVAAEDVGLYYCLQRMGFPYTFGQGTKLDIK
3.2
